tested on: 233499-124-R-J3-PDC complex spheroid viability; experiment: Anticancer human tumor 233499-124-R-J3-PDC patient-derived colon adenocarcinoma cell line growth inhibition [CLK]; details: second compound 10 µM; first compound 10 µM; stronger effect = lower value;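 note: spheroids exposed to the drug combinations for seven days; percent viability relative to DMSO vehicle control wells taken as 100%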
Recorded viability, T/C values for a group of molecules are listed next.
Attribute measured: viability, T/C (%)

Molecule | Test target | Quantitative readout
COc1cccc2c1C(=O)c1c(O)c3c(c(O)c1C2=O)CC(O)(C(=O)CO)CC3OC1CC(N)C(O)C(C)O1 (stereo unspecified) + CN1CCN(c2cc(C(=O)Nc3cc4cc(-c5cnn(C)c5)ccc4cn3)ccn2)CC1 | 233499-124-R-J3-PDC complex spheroid viability | 0.24
CC1COCCN1c1cc(C2(S(C)(=N)=O)CC2)nc(-c2ccnc3[nH]ccc23)n1 (stereo unspecified) + CN1CCN(c2cc(C(=O)Nc3cc4cc(-c5cnn(C)c5)ccc4cn3)ccn2)CC1 | 233499-124-R-J3-PDC complex spheroid viability | 0.44
O=c1[nH]cc(F)c(=O)[nH]1 + CNC(=O)c1ccc(Nc2nc(OC3CCCC3)c3c(-c4ccc5nc(C)oc5c4)c[nH]c3n2)c(OC)c1 | 233499-124-R-J3-PDC complex spheroid viability | 8.24
CCCS(=O)(=O)Nc1ccc(F)c(C(=O)c2c[nH]c3ncc(-c4ccc(Cl)cc4)cc23)c1F + CN1CCN(c2cc(C(=O)Nc3cc4cc(-c5cnn(C)c5)ccc4cn3)ccn2)CC1 | 233499-124-R-J3-PDC complex spheroid viability | 0.85
COc1ccc([C@@H](O)c2cc(-c3ncnc4cc(N5CCOCC5)ccc34)c(F)cc2Cl)nn1 + CNC(=O)c1ccc(Nc2nc(OC3CCCC3)c3c(-c4ccc5nc(C)oc5c4)c[nH]c3n2)c(OC)c1 | 233499-124-R-J3-PDC complex spheroid viability | 38.9
C#Cc1c(F)ccc2cc(O)cc(-c3ncc4c(N5CC6CCC(C5)N6)nc(OCC56CCCN5CC(F)C6)nc4c3F)c12 (stereo unspecified) + CNC(=O)c1ccc(Nc2nc(OC3CCCC3)c3c(-c4ccc5nc(C)oc5c4)c[nH]c3n2)c(OC)c1 | 233499-124-R-J3-PDC complex spheroid viability | 40.6
O=c1[nH]cc(F)c(=O)[nH]1 + CN1CCN(c2cc(C(=O)Nc3cc4cc(-c5cnn(C)c5)ccc4cn3)ccn2)CC1 | 233499-124-R-J3-PDC complex spheroid viability | 0.45
CC1(C)CCC(CN2CCN(c3ccc(C(=O)NS(=O)(=O)c4ccc(NCC5CCOCC5)c([N+](=O)[O-])c4)c(Oc4cnc5[nH]ccc5c4)c3)CC2)=C(c2ccc(Cl)cc2)C1 + CNC(=O)c1ccc(Nc2nc(OC3CCCC3)c3c(-c4ccc5nc(C)oc5c4)c[nH]c3n2)c(OC)c1 | 233499-124-R-J3-PDC complex spheroid viability | 29.2
C=CC(=O)N1CCN(c2nc(=O)n(-c3c(C)ccnc3C(C)C)c3nc(-c4c(O)cccc4F)c(F)cc23)C(C)C1 (stereo unspecified) + CN1CCN(c2cc(C(=O)Nc3cc4cc(-c5cnn(C)c5)ccc4cn3)ccn2)CC1 | 233499-124-R-J3-PDC complex spheroid viability | 1.01
Nc1ccn(C2OC(CO)C(O)C2(F)F)c(=O)n1 (stereo unspecified) + CNC(=O)c1ccc(Nc2nc(OC3CCCC3)c3c(-c4ccc5nc(C)oc5c4)c[nH]c3n2)c(OC)c1 | 233499-124-R-J3-PDC complex spheroid viability | 4.84
CC(CO)NC(=O)c1cc(-c2ccc(Cl)cc2)nn(-c2cnn(C)c2)c1=O (stereo unspecified) + CNC(=O)c1ccc(Nc2nc(OC3CCCC3)c3c(-c4ccc5nc(C)oc5c4)c[nH]c3n2)c(OC)c1 | 233499-124-R-J3-PDC complex spheroid viability | 64.2
